Consider the following compounds; for each one, report its melting point.
Give bare numbers, in °C.

COMPOUND: CSC(=S)C1(c2cccc(C)n2)CCCS1 (stereo not given)
READING UNIT: °C
melting point: 80

Okay, now this compound:
Name the recorded melting point for `N=C(Nc1nc(-c2ccccn2)nc2ccccc12)C(F)(F)F` .
189

====

Consider the following compounds; for each one, report its melting point.

Examples with their reported melting point follow.
COMPOUND: CC1(C)OC(c2ccc(S(N)(=O)=O)cc2)=C(I)C1=O
melting point: 179 to 180 °C
//
COMPOUND: COc1ccc(Cl)cc1C1CC(=O)c2c(C)ccnc2C1 (stereo unspecified)
melting point: 131 to 133 °C

Hi! Can you tell me melting point for each of these compounds?
1. CON(C)C(=O)Nc1ccc(OCCc2ccc(C)cn2)cc1
2. O=C(COc1cc(-c2ccccc2)nc2ccccc12)N1CCCC1
3. CC(C)(C)OC(=O)NCc1ccc(C(=O)Nc2ccccc2N)cc1
4. COC(C)=CC(=O)Nc1cccc(Br)c1

1. 110 to 112 °C
2. 135 °C
3. 160 to 162 °C
4. 110 °C

====

Consider the following molecules; for each one, report its melting point.

Examples with their reported melting point follow.
MOLECULE: COCCOc1cc2c(Nc3ccc(Sc4nccn4C)c(Cl)c3)c(C#N)cnc2cc1N1CCC(N2CCCC2)CC1
PARAMETER MEASURED: melting point
REPORTED MEASUREMENT: 238 to 241 °C

MOLECULE: CC1CC(=O)NN=C1c1ccc(N)c([N+](=O)[O-])c1 (stereo not given)
PARAMETER MEASURED: melting point
REPORTED MEASUREMENT: 234 to 238 °C

MOLECULE: CN(C)Cc1cccc(CSCCNc2ncc(Cc3cccnc3)c(=O)[nH]2)c1
PARAMETER MEASURED: melting point
REPORTED MEASUREMENT: 143 to 145 °C

Hi! Can you tell me melting point for each of these molecules?
1. CCC1=NNC(C)=C(C(=O)OCCOC)C1c1cccc([N+](=O)[O-])c1 (stereo not given)
2. CC(C)(C)OC(=O)[C@@H](CCc1ccc([N+](=O)[O-])cc1)OS(=O)(=O)c1ccc([N+](=O)[O-])cc1
3. COc1ccc(-c2cn(Cc3ccccc3)c(=O)c3ccccc23)cc1OC
4. COc1ccc(-c2ncsc2-c2ccc(OC)cc2)cc1
5. O=C1CC(=O)NC(c2cccc(Cl)c2)=N1
6. O=[N+]([O-])c1ccc(-c2cnc3nc(SCc4ccccc4)nn3c2)cc1

1: 141 °C; 2: 97 to 98 °C; 3: 174 to 176 °C; 4: 98 to 99 °C; 5: 256 to 257 °C; 6: 195 to 199 °C

Hi! Can you tell me melting point for each of these molecules?
1. COC(=O)c1cc(C(=O)OC)cc(S(N)(=O)=O)c1
2. CC1(C)OC(=O)Nc2c(F)cc(-c3cc(F)cc(C#N)c3)cc21
3. CC1(C)CCC(C)(C)c2cc(C#Cc3ccc(C(=O)O)cc3)ccc21
4. CC(C)Cn1nc(-c2ccc(F)c(F)c2)cc(C(=O)O)c1=O
5. CCCN(CCC)[C@H]1Cc2ccc(OCC)cc2[C@@H]1O
6. C=C(C)[C@H]1CC[C@@](C)(O)[C@H](N[C@@H](C)C2CCCCC2)C1
7. [N-]=[N+]=Nc1ccc(Cl)cc1C(=NO)c1ccccc1
8. COC1(c2cccc(Sc3ccc4c(ccc(=O)n4CC(F)(F)F)c3)c2)CCOCC1

1: 148 to 150 °C; 2: 256 to 257 °C; 3: 252 to 256 °C; 4: 163 to 164 °C; 5: 74 to 75 °C; 6: 63 to 64 °C; 7: 125 to 132 °C; 8: 138 to 140 °C

Hi! Can you tell me melting point for each of these molecules?
1. O=C(C1CCc2nc[nH]c2C1)N1CCc2ccccc2C1 (stereo not given)
2. CCSC1CC2(C)C(CCC3C4CCC(C(C)=O)C4(C)CC(=O)C32)CC1O (stereo not given)
3. O=C(CNc1ccccc1)Nc1ccc(Cl)c(Cl)c1

128 to 130 °C
170 to 173 °C
110 to 112 °C

This collection of values is drawn from a melting point compilation (Tetko et al.; mined from patent text by program, amines drawn as free bases though some values may be those of a salt).
